Biological target: T1, human ASGR-1 (wild type) (human, UniProt P07306 1-291)
T1 construct: also called wt ASGR1; huASGR-1
T1 sequence: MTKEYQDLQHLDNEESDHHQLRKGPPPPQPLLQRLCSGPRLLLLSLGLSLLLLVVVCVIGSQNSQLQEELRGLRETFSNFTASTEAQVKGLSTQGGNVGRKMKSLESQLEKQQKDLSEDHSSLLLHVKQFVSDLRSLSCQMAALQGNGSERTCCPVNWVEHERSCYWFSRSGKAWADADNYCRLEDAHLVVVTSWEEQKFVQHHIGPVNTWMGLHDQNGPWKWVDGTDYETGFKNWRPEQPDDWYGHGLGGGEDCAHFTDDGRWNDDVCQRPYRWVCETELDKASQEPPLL
Assay: FACS, transfected CHO-S cells, mAb 5 ug/ml
Attribute: FACS Binding Geomean
Provide a numeric answer; units are not to be included.

5E5 (antibody, V domains shown, mAb) VH: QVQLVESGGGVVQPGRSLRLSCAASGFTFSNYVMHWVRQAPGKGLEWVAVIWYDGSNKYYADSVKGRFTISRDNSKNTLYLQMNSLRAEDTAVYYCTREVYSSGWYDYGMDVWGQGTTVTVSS VL: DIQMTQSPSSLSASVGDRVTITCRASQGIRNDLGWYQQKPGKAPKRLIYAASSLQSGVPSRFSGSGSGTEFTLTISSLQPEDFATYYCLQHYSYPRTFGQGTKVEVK | 40700

API: the following record is the query input.
Look at this binder and give its reported FACS Binding Geomean. 190F8 (antibody, V domains shown, mAb) VH: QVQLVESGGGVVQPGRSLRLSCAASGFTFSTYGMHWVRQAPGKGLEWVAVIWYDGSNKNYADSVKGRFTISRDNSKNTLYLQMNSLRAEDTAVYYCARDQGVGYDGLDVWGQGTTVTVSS VL: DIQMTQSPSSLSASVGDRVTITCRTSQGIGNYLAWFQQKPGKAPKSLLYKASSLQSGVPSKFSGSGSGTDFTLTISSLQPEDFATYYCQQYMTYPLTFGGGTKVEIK
36500
